- System: SF-268 CNS
- testProtocol: NCI tumour cell line growth inhibition, 48 h
quantity: TGI

* CC1=C2C[C@H]3[C@@H](CC[C@@H]4CC(NS(C)(=O)=O)CC[C@@]43C)[C@@H]2CC[C@@]2(C1)O[C@@H]1C[C@H](C)CN[C@H]1[C@H]2C (stereo not given in full) | 26.6 µM
* CCc1c(C#N)c(S[C@@H](C(N)=O)c2ccccc2)nc(N(C)C)c1C#N | > 100 µM
* Cn1nc2ccc3nccc(N4CCN(CCO)CC4)c3c2n1 | > 100 µM
* CC(C)(C)C(=O)C(C(=O)C(C)(C)C)C(=O)C(C)(C)C | > 100 µM
* N#CCCCC[N+]12CN3CN(CN(C3)C1)C2 | > 100 µM

###

- Test system: MDA-MB-435
- testProtocol: NCI tumour cell line growth inhibition, 48 h
# key: entry, value: TGI
quantity: TGI

- COC1CC(OC2C(C)OC(OC3C(C)OC(OC4C(O)CC(O[C@H]5CC[C@@]6(C)C(=CC[C@]7(O)[C@@H]6C[C@@H](OC(=O)/C=C/c6ccccc6)[C@@]6(C)[C@]7(O)CC[C@@]6(O)C(C)=O)C5)OC4C)CC3OC)CC2OC)OC(C)C1O (stereo partly specified): > 6.25 µM
- COc1ccc2c(=O)c3ccoc3n(CC=C(C)C)c2c1: > 100 µM
- Oc1cc(-c2ccccc2)cn2c1nc1ccccc12: > 100 µM
- Nc1c(Br)cc(Br)c2c1[nH]c(=O)c1ccccc12: > 100 µM
- CC(C)c1cc(CN(C)C)c(O)c(C(C)(C)C)c1: > 100 µM
- CC(C)[C@H](CO)Nc1nc(Nc2ccc(C(=O)NCCNS(=O)(=O)c3cccc4c(N(C)C)cccc34)c(Cl)c2)c2ncn(C(C)C)c2n1: > 44.2 µM

###

# key: entry, value: TGI
- Test system: HCT-116 colon
- testProtocol: NCI tumour cell line growth inhibition, 48 h
quantity: TGI (µM)

* COc1cc(/C=C2\C[C@H]3[C@@H]4CC=C5C=C(N6CCCC6)CC[C@]5(C)[C@H]4CC[C@]3(C)C2=O)cc(OC)c1OC | 3.93
* Cc1cc2nc3c4cc(N)ccc4n(CCN(C)C)c3nc2cc1C | 10.9
* CC(=O)O[C@H]1C(=O)[C@@]2(C)[C@H]([C@H](OC(=O)c3cccc(C(F)(F)F)c3)[C@]3(O)C[C@H](OC(=O)[C@H](O)[C@@H](NC(=O)c4ccccc4)c4ccccc4)C(C)=C1C3(C)C)[C@]1(OC(C)=O)CO[C@@H]1C[C@@H]2O | 3.21
* CC(=O)OC[C@]1(O)CC[C@@]23CC1C[C@@H]2CCC1C(C)(C)CCC[C@@]13C (stereo not given in full) | 24.2
* COc1cc(C)c2c(=O)c3ccccc3n(C)c2c1 | 34
* CSc1nc(Cl)c(Br)c(Sc2nc(N)nc3nc[nH]c23)n1 | 12.4
* C=CC(=O)N1CCN(c2nc(=O)n(-c3c(C)ccnc3C(C)C)c3nc(-c4c(O)cccc4F)c(F)cc23)[C@@H](C)C1 | 36.3
* CC(=O)OC(C)C1C2=C(C(=O)CC1(C)O)C(=O)c1c(ccc(-c3ccc4c(c3O)C(=O)C3=C(C4=O)C(C(C)OC(C)=O)C(C)(O)CC3=O)c1O)C2=O (stereo not given) | 1.77
* COC(=O)c1c2c(c(C)[n+]([O-])c1C)C(=O)C=C(NCc1ccc(F)c(Cl)c1)C2=O | 1.03
* C/C(=N\Nc1cc(C)c2cc(C)ccc2n1)c1ccccn1 | 1.36
* O=C(Nc1cc(Cl)cc(Cl)c1)c1ccc(NC2=C(Cl)C(=O)N(Cc3ccc(Cl)cc3Cl)C2=O)cc1 | 16.9
* COc1ccc(/C=C/C(=O)/C=C/c2ccc(OC)cc2)cc1 | 23.3
